meta.source: paper PMC2779455

- system-name: Ring1A (Homo sapiens)
- Construct: recombinant GST fusion of Ring1A (N-terminal HA tag, C-terminal six-histidine tag) in complex with GST-Bmi1, from E. coli; with Bmi1
- Sequence (Q06587 1-406): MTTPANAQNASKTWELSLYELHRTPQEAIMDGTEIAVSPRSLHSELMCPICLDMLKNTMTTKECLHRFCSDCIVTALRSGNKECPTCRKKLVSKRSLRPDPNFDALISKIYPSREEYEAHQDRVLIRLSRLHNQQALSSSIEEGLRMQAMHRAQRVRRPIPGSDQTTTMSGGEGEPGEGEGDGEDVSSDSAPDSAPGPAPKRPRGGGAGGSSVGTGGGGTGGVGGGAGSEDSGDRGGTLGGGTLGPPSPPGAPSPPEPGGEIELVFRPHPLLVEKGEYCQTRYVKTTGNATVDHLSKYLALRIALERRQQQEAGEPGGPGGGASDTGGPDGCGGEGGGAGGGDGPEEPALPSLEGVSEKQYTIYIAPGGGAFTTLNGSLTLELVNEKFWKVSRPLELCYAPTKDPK
- Sequence (P35226 1-326 partner): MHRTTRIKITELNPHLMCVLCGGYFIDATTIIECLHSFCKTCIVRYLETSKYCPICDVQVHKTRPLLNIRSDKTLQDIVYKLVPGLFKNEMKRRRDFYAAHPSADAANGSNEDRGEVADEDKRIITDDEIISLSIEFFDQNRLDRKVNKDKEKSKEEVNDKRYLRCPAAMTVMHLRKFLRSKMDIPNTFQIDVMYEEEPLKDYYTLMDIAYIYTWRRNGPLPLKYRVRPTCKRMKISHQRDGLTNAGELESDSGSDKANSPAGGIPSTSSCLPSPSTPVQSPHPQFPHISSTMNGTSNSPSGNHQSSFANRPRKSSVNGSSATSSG
- assay-procedure: cell-free HTRF ubiquitination assay (E1, UbcH5a, Flag-ubiquitin), confirmed by gel-based Western blot
property-measured: pIC50
Interpret pIC50 as the negative base-10 log of the concentration measured in mol/L.

Data request: Tell me reported pIC50 for O=C1C(=Cc2cccnc2)C(=O)c2ccccc21 , tested with Ring1A (Homo sapiens).
Data returned: 5.41
